List of pIC50 values.
Test system: MOLM-14 F691L (endogenous FLT3 ITD and transfected FLT3 F691L)
Assay: MOLM-14 F691L cell proliferation assay (CellTiter-Glo)
Type: cell-based
Conditions: Homo sapiens, MOLM-14, 72 h; 3 d growth, GMean
pIC50: −log10 of the molar value.
measured.property: pIC50

- record.smiles: "Cn1cc(Nc2ncc(-c3ccc(CC(=O)Nc4cnc5[nH]ccc5c4)cc3)cn2)cn1"
  target.desc: "MOLM-14 F691L (endogenous FLT3 ITD and transfected FLT3 F691L)"
  measured: "5.00 to 10.00"
- record.smiles: "O=C(Cc1ccc(-c2cnc(Nc3cnn(C4CC4)c3)nc2)cc1)Nc1cnc(Cl)c(C(F)(F)F)c1"
  target.desc: "MOLM-14 F691L (endogenous FLT3 ITD and transfected FLT3 F691L)"
  measured: "5.00 to 10.00"
- record.smiles: "Cn1cc(Nc2ncc(-c3ccc(CC(=O)Nc4ccc(C(C)(C)C)nc4)cc3)cn2)cn1"
  target.desc: "MOLM-14 F691L (endogenous FLT3 ITD and transfected FLT3 F691L)"
  measured: "5.00 to 10.00"
- record.smiles: "O=C(Cc1ccc(-c2cnc(Nc3cnn4ccccc34)nc2)cc1F)Nc1ccnc(C(F)(F)F)c1"
  target.desc: "MOLM-14 F691L (endogenous FLT3 ITD and transfected FLT3 F691L)"
  measured: "5.00 to 10.00"
- record.smiles: "COCCn1cc(Nc2ncc(-c3ccc(CC(=O)Nc4cnc(Cl)c(C(F)(F)F)c4)c(F)c3)cn2)cn1"
  target.desc: "MOLM-14 F691L (endogenous FLT3 ITD and transfected FLT3 F691L)"
  measured: "5.00 to 10.00"
- record.smiles: "Cn1cc(Nc2ncc(-c3ccc(CC(=O)Nc4ccnc(C5CC5)c4)cc3)cn2)cn1"
  target.desc: "MOLM-14 F691L (endogenous FLT3 ITD and transfected FLT3 F691L)"
  measured: "5.00 to 10.00"
- record.smiles: "O=C(Cc1ccc(-c2cnc3[nH]cc(C(=O)C4CC4)c3c2)cc1F)Nc1ccnc(C(F)(F)F)c1"
  target.desc: "MOLM-14 F691L (endogenous FLT3 ITD and transfected FLT3 F691L)"
  measured: "5.00 to 10.00"
- record.smiles: "Cn1cnc(Nc2ncc(-c3ccc(CC(=O)Nc4cnc(Cl)c(C(F)(F)F)c4)c(F)c3)cn2)c1"
  target.desc: "MOLM-14 F691L (endogenous FLT3 ITD and transfected FLT3 F691L)"
  measured: "5.00 to 10.00"
- record.smiles: "COc1ncc(NC(=O)Cc2ccc(-c3cnc(Nc4cnn(C5CC5)c4)nc3)cc2)cc1C(F)(F)F"
  target.desc: "MOLM-14 F691L (endogenous FLT3 ITD and transfected FLT3 F691L)"
  measured: "5.00 to 10.00"
- record.smiles: "O=C(Cc1ccc(-c2cnc(Nc3cnn(C4CC4)c3)nc2)cc1)Nc1ccc(C(F)(F)F)cn1"
  target.desc: "MOLM-14 F691L (endogenous FLT3 ITD and transfected FLT3 F691L)"
  measured: "5.00 to 10.00"
- record.smiles: "COCC#Cc1cc2cc(-c3ccc(CC(=O)Nc4cnc(OC)c(C(F)(F)F)c4)cc3)cnc2[nH]1"
  target.desc: "MOLM-14 F691L (endogenous FLT3 ITD and transfected FLT3 F691L)"
  measured: "5.00 to 10.00"
- record.smiles: "CCn1cc(Nc2ncc(-c3ccc(CC(=O)Nc4cnc(C)c(C(F)(F)F)c4)c(F)c3)cn2)cn1"
  target.desc: "MOLM-14 F691L (endogenous FLT3 ITD and transfected FLT3 F691L)"
  measured: "5.00 to 10.00"
- record.smiles: "Cc1ncc(NC(=O)Cc2ccc(-c3cnc(Nc4cnn(C5CC5)c4)nc3)cc2F)cc1C(F)(F)F"
  target.desc: "MOLM-14 F691L (endogenous FLT3 ITD and transfected FLT3 F691L)"
  measured: "5.00 to 10.00"
- record.smiles: "CCn1cc(Nc2ncc(-c3ccc(CC(=O)Nc4cncc(C(F)(F)F)c4)c(F)c3)cn2)cn1"
  target.desc: "MOLM-14 F691L (endogenous FLT3 ITD and transfected FLT3 F691L)"
  measured: "5.00 to 10.00"
- record.smiles: "O=C(Cc1ccc(-c2cnc3[nH]cc(Cl)c3n2)cc1F)Nc1cnc(Cl)c(C(F)(F)F)c1"
  target.desc: "MOLM-14 F691L (endogenous FLT3 ITD and transfected FLT3 F691L)"
  measured: "5.00 to 10.00"

###

Measured GI50, listed per entry for reference.
Target: BA/F3-FLT3-ITD + D835Y (Homo sapiens, UniProt P36888, D835Y, cells depend on it, form not given)
Assay: Engineered BA/F3 cell growth assay, FLT3 ITD/D835Y
Format: cell-based, murine
Conditions: 3 d growth

- record.smiles: "Cn1cnc(Nc2ncc(-c3cc(F)c(CC(=O)Nc4cncc(C(F)(F)F)c4)cc3F)cn2)c1"
  GI50: "0.0001 to 10 µM"
- record.smiles: "CCn1cc(Nc2ncc(-c3ccc(CC(=O)Nc4cc(C(F)(F)F)ccn4)c(F)c3)cn2)cn1"
  GI50: "0.0001 to 10 µM"
- record.smiles: "CCn1cc(Nc2ncc(-c3cc(F)c(CC(=O)Nc4cnc(OC)c(C(F)(F)F)c4)cc3F)cn2)cn1"
  GI50: "0.0001 to 10 µM"
- record.smiles: "COc1ncc(NC(=O)Cc2ccc(-c3cnc(Nc4cn[nH]c4)nc3)cc2F)cc1C(F)(F)F"
  GI50: "0.0001 to 10 µM"

###

Below is a list of entries, each paired with its recorded pIC50 value.
Target: FLT3-ITD (Homo sapiens, UniProt P36888)
Sequence (P36888 1-993): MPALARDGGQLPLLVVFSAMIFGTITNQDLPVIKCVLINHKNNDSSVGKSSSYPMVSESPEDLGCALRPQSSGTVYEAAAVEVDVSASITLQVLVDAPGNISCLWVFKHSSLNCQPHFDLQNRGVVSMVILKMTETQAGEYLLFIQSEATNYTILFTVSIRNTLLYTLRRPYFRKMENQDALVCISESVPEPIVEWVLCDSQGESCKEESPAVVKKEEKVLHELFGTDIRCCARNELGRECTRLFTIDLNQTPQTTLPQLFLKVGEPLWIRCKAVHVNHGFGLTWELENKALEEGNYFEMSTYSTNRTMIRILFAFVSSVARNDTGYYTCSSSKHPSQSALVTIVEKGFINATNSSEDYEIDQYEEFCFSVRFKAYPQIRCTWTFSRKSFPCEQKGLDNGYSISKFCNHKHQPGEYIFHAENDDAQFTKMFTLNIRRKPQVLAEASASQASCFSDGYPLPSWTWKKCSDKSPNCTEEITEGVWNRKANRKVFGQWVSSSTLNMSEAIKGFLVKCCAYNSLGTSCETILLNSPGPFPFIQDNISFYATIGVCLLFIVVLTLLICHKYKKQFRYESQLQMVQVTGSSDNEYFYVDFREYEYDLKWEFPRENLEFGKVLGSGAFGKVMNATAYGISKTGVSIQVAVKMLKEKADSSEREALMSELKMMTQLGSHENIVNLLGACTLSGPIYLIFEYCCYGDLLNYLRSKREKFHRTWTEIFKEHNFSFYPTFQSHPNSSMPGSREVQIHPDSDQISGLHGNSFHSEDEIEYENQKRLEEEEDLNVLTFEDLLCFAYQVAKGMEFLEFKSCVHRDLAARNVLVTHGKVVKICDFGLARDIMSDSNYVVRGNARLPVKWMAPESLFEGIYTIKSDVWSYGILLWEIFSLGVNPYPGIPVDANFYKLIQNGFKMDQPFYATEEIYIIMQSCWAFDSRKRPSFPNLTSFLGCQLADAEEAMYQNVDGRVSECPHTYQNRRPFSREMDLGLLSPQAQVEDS
Assay: FLT3-ITD recombinant enzyme kinase assay (AlphaScreen)
Format: biochemical
Settings: 8 pt; read-out: FLT3_ITD 8 pt: IC50
pIC50: −log10 of the molar value.
measured.property: pIC50

- record.smiles: "COc1ncc(NC(=O)Cc2ccc(-c3cnc4[nH]cc(C(=O)C5CC5)c4c3)cc2F)cc1C(F)(F)F"
  measured.property: "pIC50"
  measured: "5.00 to 10.00"
- record.smiles: "Cn1cc(Nc2ncc(-c3ccc(CC(=O)Nc4ccc(C(F)(F)F)nc4)cc3)cn2)cn1"
  measured.property: "pIC50"
  measured: "5.00 to 10.00"
- record.smiles: "COCCn1cc(Nc2ncc(-c3ccc(CC(=O)Nc4cnc(Cl)c(C(F)(F)F)c4)c(F)c3)cn2)cn1"
  measured.property: "pIC50"
  measured: "5.00 to 10.00"
- record.smiles: "O=C(Cc1ccc(-c2cnc3[nH]cc(Cl)c3n2)cc1F)Nc1cnc(Cl)c(C(F)(F)F)c1"
  measured.property: "pIC50"
  measured: "5.00 to 10.00"
- record.smiles: "Cn1cc(Nc2ncc(-c3cc(F)c(CC(=O)Nc4cncc(C(F)(F)F)c4)cc3F)cn2)cn1"
  measured.property: "pIC50"
  measured: "5.00 to 10.00"
- record.smiles: "COc1ncc(NC(=O)Cc2ccc(-c3cnc(Nc4cn[nH]c4)nc3)cc2)cc1C(F)(F)F"
  measured.property: "pIC50"
  measured: "5.00 to 10.00"
- record.smiles: "CCn1cc(Nc2ncc(-c3ccc(CC(=O)Nc4cnc(OC)c(C(F)(F)F)c4)cc3)cn2)cn1"
  measured.property: "pIC50"
  measured: "5.00 to 10.00"
